Would you kindly list IC50 for each of these compounds?
# targetOrSystem: Phosphatidylinositol 4,5-bisphosphate 3-kinase catalytic subunit beta isoform (Homo sapiens, UniProt P42338)
# Sequence (P42338 whole entry, canonical isoform): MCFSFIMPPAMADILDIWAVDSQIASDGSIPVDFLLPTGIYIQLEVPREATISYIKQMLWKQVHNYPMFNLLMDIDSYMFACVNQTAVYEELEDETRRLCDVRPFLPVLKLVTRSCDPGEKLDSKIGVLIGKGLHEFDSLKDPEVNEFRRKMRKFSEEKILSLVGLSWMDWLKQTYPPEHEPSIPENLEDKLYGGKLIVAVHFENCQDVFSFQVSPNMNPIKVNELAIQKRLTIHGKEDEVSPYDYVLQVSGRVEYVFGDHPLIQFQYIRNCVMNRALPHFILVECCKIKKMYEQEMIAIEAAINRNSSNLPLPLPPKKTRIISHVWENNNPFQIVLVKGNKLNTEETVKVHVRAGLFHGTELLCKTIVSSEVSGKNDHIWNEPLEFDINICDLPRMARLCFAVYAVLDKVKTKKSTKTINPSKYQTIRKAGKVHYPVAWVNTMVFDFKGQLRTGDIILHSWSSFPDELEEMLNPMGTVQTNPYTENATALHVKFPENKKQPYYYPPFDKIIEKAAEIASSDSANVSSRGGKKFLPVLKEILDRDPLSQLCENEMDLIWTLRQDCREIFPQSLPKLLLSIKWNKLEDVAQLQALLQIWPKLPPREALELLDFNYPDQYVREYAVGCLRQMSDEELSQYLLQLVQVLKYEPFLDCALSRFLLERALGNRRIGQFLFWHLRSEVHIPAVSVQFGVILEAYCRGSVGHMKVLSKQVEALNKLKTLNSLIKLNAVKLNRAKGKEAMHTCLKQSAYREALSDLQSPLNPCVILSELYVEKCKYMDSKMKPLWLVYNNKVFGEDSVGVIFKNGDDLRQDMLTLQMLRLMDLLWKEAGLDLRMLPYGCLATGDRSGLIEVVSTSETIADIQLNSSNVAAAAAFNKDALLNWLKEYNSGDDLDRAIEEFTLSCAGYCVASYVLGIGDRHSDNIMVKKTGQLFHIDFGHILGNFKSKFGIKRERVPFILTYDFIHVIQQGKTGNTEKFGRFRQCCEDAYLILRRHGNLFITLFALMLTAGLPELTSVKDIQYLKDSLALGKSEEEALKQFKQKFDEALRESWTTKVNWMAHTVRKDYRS
# measurementDescription: Inhibition of PI3K beta-mediated AKT phosphorylation at serine 473 in PTEN deficient human MDA-MB-468 cells after 30 mins
# Assay type: cell-based
Report only the number, with the unit nM understood.

Enquiry: Look up IC50 for this compound: CSc1nn2c(=O)cc(N3CCOCC3)nc2n1Cc1cccc(Cl)c1Cl
Return: 13

Enquiry: Follow-up item: Cc1nn2c(=O)cc(N3CCOCC3)nc2n1Cc1cccc(Cl)c1Cl
Return: 34

Enquiry: One more compound: CSc1nn2c(=O)cc(N3CCOCC3)nc2n1Cc1cccc(C(F)(F)F)c1C
Return: 5.1

###

# targetOrSystem: Phosphatidylinositol 4,5-bisphosphate 3-kinase catalytic subunit beta isoform (Homo sapiens)
# measurementDescription: Inhibition of PI3Kbeta by continuous read time resolved fluorescence resonance energy transfer displacement assay
Field: pIC50. Provide a value for each of the molecules that follow.
Quick note: pIC50 values are minus log10 of concentrations in mol/L.

Enquiry: Need pIC50 of CSc1nn2c(=O)cc(N3CCOC(C)C3)nc2n1Cc1cccc(C(F)(F)F)c1C (stereo unspecified) , thanks.
Return: 9.00

Enquiry: One more molecule: Cc1c(Cn2c(C)nn3c(=O)cc(N4CCOC(C)C4)nc23)cccc1C(F)(F)F (racemic)
Return: 8.89

Enquiry: Same read-out for Cc1c(Cn2c(C)nn3c(=O)cc(N4CCOC(C)C4)nc23)cccc1C(F)(F)F (single isomer, unassigned; enantiomer 1) ?
Return: 8.51

Enquiry: Input Cc1nn2c(=O)cc(N3CCOCC3)nc2n1Cc1cccc(Cl)c1Cl
Return: 8.89

Enquiry: Lookup Cc1nn2c(=O)cc(N3CCOC(C)C3)nc2n1Cc1cccc(Cl)c1Cl (stereo in doubt; 6)
Return: 7.60

Enquiry: Repeat with O=c1cc(N2CCOCC2)nc2n(Cc3cccc(Cl)c3Cl)c(C3CC3)nn12
Return: 8.60

Enquiry: // next record Cc1c(Cn2c(C)nn3c(=O)cc(N4CCOC(C)C4)nc23)cccc1C(F)(F)F (single isomer, unassigned; enantiomer 2)
Return: 9.52

Enquiry: Next record, please: CSc1nn2c(=O)cc(-c3ccncc3)nc2n1Cc1cccc(Cl)c1Cl
Return: 7.89

Enquiry: // next record Cc1nn2c(=O)cc(N3CCOC(C)C3)nc2n1Cc1cccc(Cl)c1Cl (racemic)
Return: 8.70

Enquiry: Input CSc1nn2c(=O)cc(N3CCOCC3)nc2n1Cc1cccc(Cl)c1Cl
Return: 8.80

Enquiry: // next record Cc1c(Cn2c(C3CC3)nn3c(=O)cc(N4CCOCC4)nc23)cccc1C(F)(F)F
Return: 8.89

Enquiry: Also need Cc1c(Cn2c(C)cn3c(=O)cc(N4CCOCC4)nc23)cccc1C(F)(F)F , thanks.
Return: 8.89

Enquiry: Another molecule: Cc1c(Cn2c(C)nn3c(=O)nc(N4CCOCC4)cc23)cccc1C(F)(F)F
Return: 8.70

Enquiry: Next entry: Cc1nn2c(=O)cc(N3CCOC(C)C3)nc2n1Cc1cccc(Cl)c1Cl (single isomer, unassigned; enantiomer 2)
Return: 8.89

Enquiry: Try this molecule next: CSc1nn2c(=O)cc(N3CCOCC3)nc2n1Cc1cccc(C(F)(F)F)c1C
Return: 9.40

Enquiry: Quick one: Cc1c(Cn2c(C)nn3c(=O)cc(N4CCOCC4)nc23)cccc1C(F)(F)F
Return: 9.22

###

# targetOrSystem: Phosphatidylinositol 4,5-bisphosphate 3-kinase catalytic subunit delta isoform (Homo sapiens)
# Sequence (O00329 whole entry): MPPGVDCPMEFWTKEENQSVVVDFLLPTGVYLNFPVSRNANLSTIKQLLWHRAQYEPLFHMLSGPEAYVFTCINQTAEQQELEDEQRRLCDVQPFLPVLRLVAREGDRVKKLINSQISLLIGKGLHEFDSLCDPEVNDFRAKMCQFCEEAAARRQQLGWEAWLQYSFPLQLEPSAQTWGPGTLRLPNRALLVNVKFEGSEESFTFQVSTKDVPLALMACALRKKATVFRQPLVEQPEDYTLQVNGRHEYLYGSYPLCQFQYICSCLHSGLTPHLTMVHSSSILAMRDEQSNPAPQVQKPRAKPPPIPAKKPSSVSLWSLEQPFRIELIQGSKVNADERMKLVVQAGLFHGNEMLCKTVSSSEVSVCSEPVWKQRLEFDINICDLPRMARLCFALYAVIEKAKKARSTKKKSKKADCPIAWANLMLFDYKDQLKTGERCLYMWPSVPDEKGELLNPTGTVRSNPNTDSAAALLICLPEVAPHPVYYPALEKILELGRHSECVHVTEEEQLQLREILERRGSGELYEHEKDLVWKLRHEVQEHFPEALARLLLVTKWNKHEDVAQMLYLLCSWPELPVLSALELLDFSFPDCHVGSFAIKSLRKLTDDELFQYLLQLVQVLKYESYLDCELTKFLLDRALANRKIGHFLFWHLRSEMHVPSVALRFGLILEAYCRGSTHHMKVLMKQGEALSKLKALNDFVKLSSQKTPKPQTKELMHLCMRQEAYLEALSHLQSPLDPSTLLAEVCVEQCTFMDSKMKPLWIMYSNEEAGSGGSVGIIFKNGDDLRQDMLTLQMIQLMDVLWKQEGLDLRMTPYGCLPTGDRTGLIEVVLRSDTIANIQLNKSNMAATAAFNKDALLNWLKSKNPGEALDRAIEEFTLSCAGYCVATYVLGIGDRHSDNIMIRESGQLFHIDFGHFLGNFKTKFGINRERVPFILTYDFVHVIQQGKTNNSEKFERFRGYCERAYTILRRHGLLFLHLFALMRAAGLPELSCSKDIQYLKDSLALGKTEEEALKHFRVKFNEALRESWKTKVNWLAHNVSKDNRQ
# measurementDescription: Inhibition of PI3Kdelta by continuous read time resolved fluorescence resonance energy transfer displacement assay
For each record, write down the corresponding pIC50.
Please report pIC50 as the negative decimal logarithm of the molar concentration, giving only the number.

Enquiry: Fill blank: measured pIC50 of the compound Cc1nn2c(=O)cc(N3CCOC(C)C3)nc2n1Cc1cccc(Cl)c1Cl (single isomer, unassigned; enantiomer 2) is ____.
Return: 7.40

Enquiry: And the next one, CSc1nn2c(=O)cc(N3CCOC(C)C3)nc2n1Cc1cccc(C(F)(F)F)c1C (stereo not drawn) ?
Return: 7.60

Enquiry: Now the compound Cc1c(Cn2c(C)nn3c(=O)cc(N4CCOCC4)nc23)cccc1C(F)(F)F
Return: 7.70

Enquiry: Ok, now Cc1nn2c(=O)cc(N3CCOC(C)C3)nc2n1Cc1cccc(Cl)c1Cl (stereo in doubt; 6)
Return: 6.30

Enquiry: Proceed to Cc1c(Cn2c(C)nn3c(=O)cc(N4CCOC(C)C4)nc23)cccc1C(F)(F)F (single isomer, unassigned; enantiomer 1)
Return: 7.20

Enquiry: Proceed to Cc1nn2c(=O)cc(N3CCOC(C)C3)nc2n1Cc1cccc(Cl)c1Cl (racemic)
Return: 7.60

Enquiry: One more compound: Cc1c(Cn2c(C)nn3c(=O)cc(N4CCOC(C)C4)nc23)cccc1C(F)(F)F (single isomer, unassigned; enantiomer 2)
Return: 8.40

Enquiry: Further, for Cc1c(Cn2c(C)nn3c(=O)cc(N4CCOC(C)C4)nc23)cccc1C(F)(F)F (racemic) ?
Return: 8.00

###

For each record, write down the corresponding log10(IC50).
# targetOrSystem: Phosphatidylinositol 4,5-bisphosphate 3-kinase catalytic subunit beta isoform (Homo sapiens, UniProt P42338)
# measurementDescription: Inhibition of PI3K beta-mediated AKT phosphorylation at serine 473 in PTEN deficient human MDA-MB-468 cells after 30 mins
# Assay type: cell-based
Reminder: these figures are log10 of reported IC50, in nM before transformation.

Enquiry: Find the recorded log10(IC50) belonging to O=c1cc(N2CCOCC2)nc2n(Cc3cccc(Cl)c3Cl)c(C3CC3)nn12 and report it.
Return: 1.30

Enquiry: And for Cc1c(Cn2c(C)nn3c(=O)cc(N4CCOCC4)nc23)cccc1C(F)(F)F ?
Return: 0.18

Enquiry: And then Cc1c(Cn2c(C)nn3c(=O)nc(N4CCOCC4)cc23)cccc1C(F)(F)F , what is it?
Return: 1.96

Enquiry: Also, Cc1c(Cn2c(C)nn3c(=O)cc(N4CCOC(C)C4)nc23)cccc1C(F)(F)F (single isomer, unassigned; enantiomer 1) please.
Return: 0.90

Enquiry: # iterate: Cc1c(Cn2c(C)nn3c(=O)cc(N4CCOC(C)C4)nc23)cccc1C(F)(F)F (single isomer, unassigned; enantiomer 2)
Return: -0.30

Enquiry: Now consider Cc1nn2c(=O)cc(N3CCOC(C)C3)nc2n1Cc1cccc(Cl)c1Cl (single isomer, unassigned; enantiomer 2) .
Return: 0.53

Enquiry: For Cc1c(Cn2c(C)nn3c(=O)cc(N4CCOC(C)C4)nc23)cccc1C(F)(F)F (racemic) then?
Return: 0.43

Enquiry: Then this molecule: Cc1c(Cn2c(C3CC3)nn3c(=O)cc(N4CCOCC4)nc23)cccc1C(F)(F)F
Return: 0.61
